Item-by-item account of pIC50
- Test system: CCRF-CEM
- assay-name: Cytotoxicity in H1 CEM cells
- Format: functional, cell-based
- experimental-conditions: Homo sapiens
pIC50 is a log-scale quantity: -log10 of the concentration expressed in molar.

Answered examples (2):
Which pIC50 reading was recorded for the compound "Nc1ccn([C@@H]2CO[C@H](CO)O2)c(=O)n1" ?
7.25

Which value of pIC50 has been reported for "Nc1ccn([C@@H]2CS[C@H](CO)O2)c(=O)n1" in the records?
4.30

# ---- query compound ----
# get_value(readout='pIC50', item= "Nc1ccn([C@H]2CO[C@@H](CO)O2)c(=O)n1" )
5.62

Where these numbers come from: ChEMBL document CHEMBL1128808
